Cited source for all entries: ChEMBL document CHEMBL4602696

targetSystem: Proteasome subunit beta type-9 (Homo sapiens)
assayText: Inhibition of LMP2 in human 20S immunoproteasome using Ac-PAL-AMC as substrate after 1 hr by fluorescence based microplate reader analysis
valueKind: pIC50
The value called pIC50 is obtained by taking minus log10 of the concentration in mol/L.

Consider the reported pIC50 for these molecules:
- CC(C)C[C@H](NC(=O)[C@H](Cc1ccccc1)NC(=O)[C@@H]1CCCN1C(=O)CN1CCOCC1)C(=O)[C@@]1(C)CO1: 5.91
- CCCC[C@H](NC(=O)[C@@H]1CCCN1C(=O)CNC(C)=O)C(=O)N[C@@H](CC(C)C)C(=O)[C@@]1(C)CO1: 6.92
- CC(=O)NCC(=O)N1CCC[C@H]1C(=O)N[C@@H](Cc1ccncc1)C(=O)N[C@@H](CC(C)C)C(=O)[C@@]1(C)CO1: 6.91

Problem: Entry CC(=O)NCC(=O)N1CC(=O)C[C@H]1C(=O)N[C@@H](Cc1ccccc1)C(=O)N[C@@H](CC(C)C)C(=O)[C@@]1(C)CO1 : reported pIC50 = ?
Solution: 6.21

Problem: Entry CC(C)C[C@H](NC(=O)[C@H](Cc1ccccc1)NC(=O)[C@@H]1CCCN1C(=O)c1cccc(O)n1)C(=O)[C@@]1(C)CO1 : reported pIC50 = ?
Solution: 6.00

Problem: Entry CCc1ccc(C[C@H](NC(=O)[C@@H]2CCCN2C(=O)CNC(C)=O)C(=O)N[C@@H](CC(C)C)C(=O)[C@@]2(C)CO2)cc1 : reported pIC50 = ?
Solution: 6.87

Problem: Entry CC(=O)NCC(=O)N1CCC[C@H]1C(=O)N[C@@H](Cc1ccc(NC(=O)c2ccccc2)cc1)C(=O)N[C@@H](CC(C)C)C(=O)[C@@]1(C)CO1 : reported pIC50 = ?
Solution: 7.14

Problem: Entry CC(=O)NCC(=O)N1CCC[C@H]1C(=O)N[C@@H](Cc1ccc(F)cc1)C(=O)N[C@@H](CC(C)C)C(=O)[C@@]1(C)CO1 : reported pIC50 = ?
Solution: 7.09

Problem: Entry CC(=O)NCC(=O)N1CCC[C@H]1C(=O)N[C@@H](CCc1ccccc1)C(=O)N[C@@H](CC(C)C)C(=O)[C@@]1(C)CO1 : reported pIC50 = ?
Solution: 7.24

Problem: Entry Cc1ncc(C(=O)NCC(=O)N2CCC[C@H]2C(=O)N[C@@H](Cc2ccccc2)C(=O)N[C@@H](CC(C)C)C(=O)[C@@]2(C)CO2)s1 : reported pIC50 = ?
Solution: 6.98

Problem: Entry CC(C)C[C@H](NC(=O)[C@H](Cc1ccccc1)NC(=O)[C@@H]1CCCN1C(=O)CNC(=O)C(F)(F)F)C(=O)[C@@]1(C)CO1 : reported pIC50 = ?
Solution: 6.88

Problem: Entry Cc1ncc(C(=O)NCC(=O)N2CCC[C@H]2C(=O)N[C@@H](CCc2ccccc2)C(=O)N[C@@H](CC(C)C)C(=O)[C@@]2(C)CO2)s1 : reported pIC50 = ?
Solution: 6.99

---

targetSystem: Proteasome subunit beta type-9 (Homo sapiens, UniProt P28065)
Sequence (P28065 whole entry): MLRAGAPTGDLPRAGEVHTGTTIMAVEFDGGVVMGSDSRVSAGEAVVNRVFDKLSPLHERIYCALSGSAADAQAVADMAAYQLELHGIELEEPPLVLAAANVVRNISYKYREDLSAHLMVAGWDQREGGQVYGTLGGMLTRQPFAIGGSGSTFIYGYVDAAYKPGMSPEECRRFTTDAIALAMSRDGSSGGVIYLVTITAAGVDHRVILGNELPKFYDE
assayText: Inhibition of LMP2 in human 20S immunoproteasome using Ac-PAL-AMC as substrate after 1 hr by fluorescence based microplate reader analysis
Field 'label' (enum: 1 / -1). Set to 1 when IC50 is strictly under 100 nM; else -1.

• Cc1ncc(C(=O)NCC(=O)N2CCC[C@H]2C(=O)N[C@@H](Cc2ccc(-c3ccccc3)cc2)C(=O)N[C@@H](CC(C)C)C(=O)[C@@]2(C)CO2)s1 = -1
• Cc1cc(C(=O)NCC(=O)N2CCC[C@H]2C(=O)N[C@@H](CCc2ccccc2)C(=O)N[C@@H](CC(C)C)C(=O)[C@@]2(C)CO2)no1 = -1
• CC(C)C[C@H](NC(=O)[C@H](Cc1ccccc1)NC(=O)[C@@H]1CCCN1C(=O)CNS(C)(=O)=O)C(=O)[C@@]1(C)CO1 = -1
• CC(C)C[C@H](NC(=O)[C@H](Cc1ccc(-c2ccccc2)cc1)NC(=O)[C@@H]1CCCN1C(=O)CNC(=O)c1cnccn1)C(=O)[C@@]1(C)CO1 = 1

Problem: Regarding CC(=O)NCC(=O)N1CCC[C@H]1C(=O)N[C@@H](Cc1ccc(C(C)(C)C)cc1)C(=O)N[C@@H](CC(C)C)C(=O)[C@@]1(C)CO1 , kindly confirm whether its IC50 is beneath 100 nM.
Solution: -1

Problem: Regarding CC(=O)NCC(=O)N1CCC[C@H]1C(=O)N[C@@H](CO)C(=O)N[C@@H](CC(C)C)C(=O)[C@@]1(C)CO1 , kindly confirm whether its IC50 is beneath 100 nM.
Solution: -1
